Read-out: CD40, CD40 (gene 958)
Test: BSK_LPS_CD40: BioMAP Diversity Plus: LPS Assay for CD40 Biomarker Activity (AID 2283076)
Details: primary human HUVEC with PBMC; actives raise or lower the signal
The source made the active and inactive calls. Rule for the calls: active = hit-call score of the fitted dose curve at least 0.9, where 1 is the maximum; inactive = score below 0.9.
Outcome codes: active, inactive

Cc1c(-c2cccnc2)c2ccccc2n1CCCCC(=O)O	inactive
CC(C)=CCCC(C)CCO (centres undefined)	inactive
CC(O)CN(CCN(CC(C)O)CC(C)O)CC(C)O (centres undefined)	inactive
O=C1CCCCCN1	inactive
O=C1CCC(N2C(=O)c3ccccc3C2=O)C(=O)N1 (centres undefined)	inactive
CC(C)CCO	inactive
CCc1cc(SCc2sc(-c3ccc(C(F)(F)F)cc3)nc2CN2CCN(c3ccc(OC)cc3)CC2)ccc1OCC(=O)O	active
Cc1ccc(C)c(O)c1	inactive
C[C@](N)(Cc1ccc(O)c(O)c1)C(=O)O	inactive
CC(C)CC(C)(O)C#CC(C)(O)CC(C)C (centres undefined)	inactive
COC(=O)c1ccccc1O	inactive
Oc1ccc2c(c1)-c1ccccc1C2	active
O=P(OC(CCl)CCl)(OC(CCl)CCl)OC(CCl)CCl	inactive
Nc1ccc(Nc2ccccc2)cc1	active

Value source: PubChem BioAssay (EPA / NIEHS)
